Data credit: the supplement of paper PMC7877785

# test-name: self-splicing fitness, log relative to wild type (ln ratio); higher = more splicing; Tetrahymena group I intron in knt gene, E. coli kanamycin selection, DiMSum; sequences stand for … in CUCUCU…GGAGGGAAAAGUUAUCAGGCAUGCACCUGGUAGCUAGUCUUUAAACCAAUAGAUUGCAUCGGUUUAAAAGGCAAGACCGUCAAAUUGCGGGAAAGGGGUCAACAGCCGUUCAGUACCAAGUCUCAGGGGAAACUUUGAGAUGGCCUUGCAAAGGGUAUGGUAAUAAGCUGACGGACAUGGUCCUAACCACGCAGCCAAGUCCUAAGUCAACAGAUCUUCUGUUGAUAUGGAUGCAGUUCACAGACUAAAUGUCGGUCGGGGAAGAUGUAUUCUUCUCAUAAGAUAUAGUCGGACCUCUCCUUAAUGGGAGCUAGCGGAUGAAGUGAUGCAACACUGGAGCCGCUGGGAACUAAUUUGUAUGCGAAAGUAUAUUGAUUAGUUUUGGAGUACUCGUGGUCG;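 also: selection with 25 µg/mL kanamycin versus none on LB agar overnight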
# protocol-conditions: 30 °C
Entries are grouped by self-splicing fitness (ln) into these classes: Low: < -4; Medium: ≥ -4 and < -3; High: ≥ -3

> print(dat)
          sequence.text     cat
1  GACGAGCAAUAUUACGCCUC  Medium
2  UCCCAGCAAUAUUACGCCGC     Low
3  CCCUAGCAAUAUUACGUAGU  Medium
4  AAAUAGCAAUAUUACGUCGA    High
5  UGUAAGCAAUAUUACGACGU    High
6  GGUUAGCAAUAUUACGCGUG    High
7  GAUCAGCAAUAUUACGUAAU    High
8  CCUCAGCAAUAUUACGCCGG  Medium

Please let me know in which category the item UUGGAGCAAUAUUACGCUCU belongs.
Low

Please let me know in which category the item CGCUAGCAAUAUUACGUAUU belongs.
Medium

Please let me know in which category the item GAUUAGCAAUAUUACGUAGA belongs.
High

----------
# test-name: self-splicing fitness, log relative to wild type (ln ratio); higher = more splicing; Tetrahymena group I intron in knt gene, E. coli kanamycin selection, DiMSum; sequences stand for … in CUCUCU…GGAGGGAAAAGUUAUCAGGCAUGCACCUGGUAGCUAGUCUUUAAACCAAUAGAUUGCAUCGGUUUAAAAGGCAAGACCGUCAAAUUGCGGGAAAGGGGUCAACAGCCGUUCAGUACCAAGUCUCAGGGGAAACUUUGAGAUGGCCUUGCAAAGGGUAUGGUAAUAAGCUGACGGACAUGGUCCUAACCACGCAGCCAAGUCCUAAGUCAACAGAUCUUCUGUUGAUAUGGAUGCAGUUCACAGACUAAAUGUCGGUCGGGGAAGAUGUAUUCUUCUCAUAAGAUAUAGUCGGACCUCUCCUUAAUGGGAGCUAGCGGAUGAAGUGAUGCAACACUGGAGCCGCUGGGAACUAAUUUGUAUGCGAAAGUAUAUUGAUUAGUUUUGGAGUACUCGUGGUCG
# protocol-conditions: 30 °C
Label y when self-splicing fitness (ln) is at or above -2; anything below gets n.

> print(dat)
          sequence.text  cat
1  UUAAAGCAAUAUUACGAUCG    y
2  AUGUAGCAAUAUUACGCACC    y
3  AUCUAGCAAUAUUACGACUA    y

Does the sequence GUUCAGCAAUAUUACGCUAC have recorded self-splicing fitness (ln) that is -2 or more?
n

Does the sequence UUAUAGCAAUAUUACGCUAA have recorded self-splicing fitness (ln) that is -2 or more?
n

Does the sequence AGGAAGCAAUAUUACGAAAG have recorded self-splicing fitness (ln) that is -2 or more?
n

Does the sequence GCGUAGCAAUAUUACGGCAU have recorded self-splicing fitness (ln) that is -2 or more?
y

Does the sequence UAUUAGCAAUAUUACGGCCA have recorded self-splicing fitness (ln) that is -2 or more?
y

Does the sequence CCCAAGCAAUAUUACGAUGG have recorded self-splicing fitness (ln) that is -2 or more?
n

Does the sequence ACCUAGCAAUAUUACGCCUG have recorded self-splicing fitness (ln) that is -2 or more?
n

Does the sequence AGCCAGCAAUAUUACGACGG have recorded self-splicing fitness (ln) that is -2 or more?
n

Does the sequence UUAUAGCAAUAUUACGGCGU have recorded self-splicing fitness (ln) that is -2 or more?
n

Does the sequence UUUAAGCAAUAUUACGAUGU have recorded self-splicing fitness (ln) that is -2 or more?
n

Does the sequence CACGAGCAAUAUUACGGGAA have recorded self-splicing fitness (ln) that is -2 or more?
n

Does the sequence AGGCAGCAAUAUUACGUGCG have recorded self-splicing fitness (ln) that is -2 or more?
y

Does the sequence CGCGAGCAAUAUUACGGCCU have recorded self-splicing fitness (ln) that is -2 or more?
n

Does the sequence GGGAAGCAAUAUUACGUUGC have recorded self-splicing fitness (ln) that is -2 or more?
n

Does the sequence UUGAAGCAAUAUUACGCUAA have recorded self-splicing fitness (ln) that is -2 or more?
y

----------
# test-name: self-splicing fitness, log relative to wild type (ln ratio); higher = more splicing; Tetrahymena group I intron in knt gene, E. coli kanamycin selection, DiMSum; sequences stand for … in CUCUCU…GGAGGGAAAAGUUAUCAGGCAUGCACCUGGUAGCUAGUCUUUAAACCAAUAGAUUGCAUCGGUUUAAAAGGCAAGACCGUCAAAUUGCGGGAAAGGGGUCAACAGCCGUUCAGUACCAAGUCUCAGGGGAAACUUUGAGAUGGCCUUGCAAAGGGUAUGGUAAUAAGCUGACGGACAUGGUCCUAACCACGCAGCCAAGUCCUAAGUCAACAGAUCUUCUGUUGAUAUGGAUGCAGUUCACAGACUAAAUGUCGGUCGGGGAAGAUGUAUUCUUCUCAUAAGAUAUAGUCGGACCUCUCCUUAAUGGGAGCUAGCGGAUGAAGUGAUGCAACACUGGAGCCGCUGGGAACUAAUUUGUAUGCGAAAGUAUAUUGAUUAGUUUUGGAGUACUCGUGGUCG
# protocol-conditions: 30 °C
Label Criterion met when self-splicing fitness (ln) is at or above -2; anything below gets Criterion not met.

Worked cases, answers included:
> print(dat)
          sequence.text                cat
1  GCAAAGCAAUAUUACGCUCU      Criterion met
2  CUAGAGCAAUAUUACGUCUC  Criterion not met
3  UCCUAGCAAUAUUACGAAGG  Criterion not met
4  UCAUAGCAAUAUUACGCCCU  Criterion not met
5  GGCGAGCAAUAUUACGUAUA      Criterion met
6  AACAAGCAAUAUUACGUAUU      Criterion met
7  GGGAAGCAAUAUUACGGUGC      Criterion met

Could you now consider this next sequence?
Does the sequence GGGUAGCAAUAUUACGUUUU have recorded self-splicing fitness (ln) that is -2 or more?
Criterion met

----------
Overview of reported self-splicing fitness (ln) across a group of sequences:
# test-name: self-splicing fitness, log relative to wild type (ln ratio); higher = more splicing; Tetrahymena group I intron in knt gene, E. coli kanamycin selection, DiMSum; sequences stand for … in CUCUCU…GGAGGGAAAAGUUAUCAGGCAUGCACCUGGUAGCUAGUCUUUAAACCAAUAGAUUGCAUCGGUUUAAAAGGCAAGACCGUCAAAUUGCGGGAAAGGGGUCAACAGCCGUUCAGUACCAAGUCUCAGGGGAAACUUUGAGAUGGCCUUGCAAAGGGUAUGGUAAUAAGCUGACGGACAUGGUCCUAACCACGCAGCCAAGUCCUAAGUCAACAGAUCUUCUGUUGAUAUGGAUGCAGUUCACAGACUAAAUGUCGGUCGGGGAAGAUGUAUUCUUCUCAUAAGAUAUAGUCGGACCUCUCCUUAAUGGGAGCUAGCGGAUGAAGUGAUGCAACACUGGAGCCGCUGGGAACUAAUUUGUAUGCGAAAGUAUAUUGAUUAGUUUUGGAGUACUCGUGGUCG
# protocol-conditions: 37 °C
Reply with just the number.

Past entries and their recorded results:
> print(dat)
          sequence.text               assay.readout  recorded.number
1  CCAGAGCAAUAUUACGUGGA  self-splicing fitness (ln)            -2.03
2  CUGAAGCAAUAUUACGUCGG  self-splicing fitness (ln)            -1.14
3  GAAUAGCAAUAUUACGGUGU  self-splicing fitness (ln)            -1.58

Value lookup for self-splicing fitness (ln); key = GCCAAGCAAUAUUACGGGUG
-0.591

----------
# test-name: self-splicing fitness, log relative to wild type (ln ratio); higher = more splicing; Tetrahymena group I intron in knt gene, E. coli kanamycin selection, DiMSum; sequences stand for … in CUCUCU…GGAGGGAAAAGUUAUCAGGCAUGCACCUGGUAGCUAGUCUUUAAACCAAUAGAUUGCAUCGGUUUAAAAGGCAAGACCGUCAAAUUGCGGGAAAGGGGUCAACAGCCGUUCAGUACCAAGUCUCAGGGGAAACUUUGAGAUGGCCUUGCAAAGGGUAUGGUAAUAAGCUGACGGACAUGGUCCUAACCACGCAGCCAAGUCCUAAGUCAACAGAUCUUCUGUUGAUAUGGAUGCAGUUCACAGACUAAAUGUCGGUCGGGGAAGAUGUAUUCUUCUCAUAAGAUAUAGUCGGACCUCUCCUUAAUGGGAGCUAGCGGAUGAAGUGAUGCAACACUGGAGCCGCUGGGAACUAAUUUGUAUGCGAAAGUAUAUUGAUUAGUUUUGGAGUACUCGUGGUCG
# protocol-conditions: 37 °C
Entries are grouped by self-splicing fitness (ln) into these classes: bucket 1 (below -2), bucket 2 (-2 to below -0.6), bucket 3 (-0.6 or more)

Worked cases, answers included:
> print(dat)
          sequence.text       cat
1  UAUUAGCAAUAUUACGACGA  bucket 3
2  ACCAAGCAAUAUUACGAGUC  bucket 2
3  AAGCAGCAAUAUUACGCAGG  bucket 2
4  UGCCAGCAAUAUUACGUCCA  bucket 3
5  GGGAAGCAAUAUUACGCCUU  bucket 3
6  GCAAAGCAAUAUUACGCUUA  bucket 2
7  CGCAAGCAAUAUUACGCAUC  bucket 1
8  CAAAAGCAAUAUUACGGUGG  bucket 3

Please let me know in which category the item GAGAAGCAAUAUUACGUAGA belongs.
bucket 2

Please let me know in which category the item UGUAAGCAAUAUUACGCAAA belongs.
bucket 2
